B1: CPEB3 Ribozyme (parent)
chain: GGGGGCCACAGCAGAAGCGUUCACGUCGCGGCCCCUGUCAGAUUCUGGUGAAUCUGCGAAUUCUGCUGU

# Variants of: B1
# procedure-summary: self-cleavage, relative activity (ratio to wild type); higher = more cleavage; co-transcriptional
Binary classification by self-cleavage, with 0.4 as an inclusive lower bound for 1; all other cases are 0.

Example entries and their recorded answers appear below.
>>> class_name("G19A U44G")
0
>>> class_name("G5C C54G")
0
>>> class_name("U21G G65C")
0
>>> class_name("A16G U49G")
1
>>> class_name("G4U U69A")
1

Ask | self-cleavage >= 0.4 for G3C C22A ?
Reply | 0

Ask | Same thing, different variant: C7G U43G
Reply | 0
